target: T1, Human Siglec-9 mutant M5 (human, UniProt Q9Y336 18-463); assay: flow cytometry, HEK293T transfectants
T1 construct: Expressed on HEK293T cells; also called Mutant 5
T1 sequence (Q9Y336 other isoform, or with tags, fused parts or gaps mutant): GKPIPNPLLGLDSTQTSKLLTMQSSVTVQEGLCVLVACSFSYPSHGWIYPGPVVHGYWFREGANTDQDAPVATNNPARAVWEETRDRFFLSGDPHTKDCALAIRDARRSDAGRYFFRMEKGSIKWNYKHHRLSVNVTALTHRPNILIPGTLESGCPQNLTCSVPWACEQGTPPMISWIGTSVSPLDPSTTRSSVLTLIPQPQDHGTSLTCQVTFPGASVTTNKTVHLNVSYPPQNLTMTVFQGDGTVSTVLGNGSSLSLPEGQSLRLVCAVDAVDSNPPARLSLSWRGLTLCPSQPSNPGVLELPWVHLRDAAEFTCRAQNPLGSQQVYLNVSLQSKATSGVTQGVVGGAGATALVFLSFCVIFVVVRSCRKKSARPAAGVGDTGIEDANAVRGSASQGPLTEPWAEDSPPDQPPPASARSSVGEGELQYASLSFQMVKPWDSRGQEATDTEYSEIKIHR
assay readout: binding result

• mAb2 (antibody, human IgG1, V domains shown) VH: EVQLQESGPGLVKPSQSLSLTCTVTGYSITGGFAWNWIRQFPGNTLEWMGYIGYGGSTSYNPSLNSRISITRDTSKNHFFLQFNSVTTEDSATYYCARGDYLFAYWGQGTLVTVSA VL: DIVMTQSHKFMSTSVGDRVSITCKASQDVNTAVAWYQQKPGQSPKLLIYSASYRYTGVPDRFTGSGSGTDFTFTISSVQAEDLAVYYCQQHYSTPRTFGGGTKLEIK = binds
• Fab1 (Fab of mAb1) (Fab, V domains shown) VH: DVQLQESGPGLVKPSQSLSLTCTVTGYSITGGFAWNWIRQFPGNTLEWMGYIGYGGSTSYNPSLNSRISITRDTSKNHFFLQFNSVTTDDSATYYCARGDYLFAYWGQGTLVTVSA VL: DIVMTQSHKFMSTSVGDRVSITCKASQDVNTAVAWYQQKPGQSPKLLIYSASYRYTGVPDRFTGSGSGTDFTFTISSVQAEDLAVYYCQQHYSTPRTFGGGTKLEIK = binds
• Fab.F (Fab of mAbF) (Fab, V domains shown) VH: QVQLQQSGPEVVRPGVSVKISCKGSGYTFTDYSMHWVKQSHAKSLEWIGVISTYNGNTNYNQKFKGKATMTVDKSSSTAYMELARLTSEDSAIYYCARRGYYGSSSWFGYWGQGTLVTVSA VL: DIVMTQSQKFMSTSVGDRVSVTCKASQNVGTDVAWYQQKPGQSPEALIYSASYRYSGVPDRFTGSGSGADFTLTISNVQSEDLAEYFCQQYNSFPYTFGGGTKLEIK = binds
• mAb1 (antibody, human IgG1, V domains shown) VH: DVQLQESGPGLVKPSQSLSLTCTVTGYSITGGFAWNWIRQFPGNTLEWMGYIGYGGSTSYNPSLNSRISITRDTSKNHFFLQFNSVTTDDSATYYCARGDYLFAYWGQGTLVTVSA VL: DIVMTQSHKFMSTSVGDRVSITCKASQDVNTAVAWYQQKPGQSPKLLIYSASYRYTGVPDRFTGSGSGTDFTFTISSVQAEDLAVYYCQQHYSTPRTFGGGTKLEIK = binds

Proceed to the following item.
// fetch binding result given entry mAbB (antibody, human IgG1, V domains shown) VH: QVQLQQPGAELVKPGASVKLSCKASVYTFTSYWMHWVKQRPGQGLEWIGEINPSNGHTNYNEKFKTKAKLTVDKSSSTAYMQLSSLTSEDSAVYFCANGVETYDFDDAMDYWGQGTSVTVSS VL: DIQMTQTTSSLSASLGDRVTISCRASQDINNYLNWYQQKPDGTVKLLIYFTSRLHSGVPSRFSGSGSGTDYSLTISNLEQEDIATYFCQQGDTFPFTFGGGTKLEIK
binds
